Biological target: T1, Peptide A (human PAR-2), N-terminal biotinylated (Human, N-terminal biotin via G4S linker)
T1 construct: also called Peptide A N-Term
T1 peptide: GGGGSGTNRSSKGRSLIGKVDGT
Assay: SPR, peptide immobilized
recorded endpoint: pKd
# pKd is unitless: minus log10 of the molar concentration; print number only

Exercise: Fill blank: measured pKd of the binder H4H588N (antibody, human IgG4, V domains shown, also called H2M588N variable regions) VH: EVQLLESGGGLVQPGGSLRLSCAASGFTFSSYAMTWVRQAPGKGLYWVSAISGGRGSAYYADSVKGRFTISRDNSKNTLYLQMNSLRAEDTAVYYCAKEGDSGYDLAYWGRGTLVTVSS VL: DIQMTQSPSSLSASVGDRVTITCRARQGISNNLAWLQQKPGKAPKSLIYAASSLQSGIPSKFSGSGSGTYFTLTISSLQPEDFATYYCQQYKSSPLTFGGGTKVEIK is ____.
Solution: 8.98

Exercise: Please do the same for H4H585P (antibody, human IgG4, V domains shown, also called H1H585P variable regions) VH: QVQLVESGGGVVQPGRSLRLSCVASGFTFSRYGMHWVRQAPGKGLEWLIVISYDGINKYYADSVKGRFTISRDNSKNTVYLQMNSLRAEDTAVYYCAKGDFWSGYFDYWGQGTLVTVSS VL: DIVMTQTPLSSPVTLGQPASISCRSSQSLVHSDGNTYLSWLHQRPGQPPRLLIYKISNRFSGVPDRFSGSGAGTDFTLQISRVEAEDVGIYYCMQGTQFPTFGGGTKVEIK as well.
Solution: 8.77

Exercise: Please do the same for H4H581P (antibody, human IgG4, V domains shown, also called mAb H4H581P; H1H581P variable regions) VH: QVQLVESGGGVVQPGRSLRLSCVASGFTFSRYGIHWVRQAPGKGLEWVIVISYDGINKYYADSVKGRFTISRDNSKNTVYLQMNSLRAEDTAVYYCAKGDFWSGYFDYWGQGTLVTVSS VL: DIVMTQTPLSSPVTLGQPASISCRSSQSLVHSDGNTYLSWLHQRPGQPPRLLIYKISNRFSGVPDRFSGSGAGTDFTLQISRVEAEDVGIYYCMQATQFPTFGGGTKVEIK as well.
Solution: 9.30

Exercise: Please do the same for H4H583P (antibody, human IgG4, V domains shown, also called H1H583P variable regions) VH: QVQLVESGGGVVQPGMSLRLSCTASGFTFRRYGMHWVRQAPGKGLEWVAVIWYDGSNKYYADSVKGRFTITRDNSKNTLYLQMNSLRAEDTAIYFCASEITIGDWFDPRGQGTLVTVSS VL: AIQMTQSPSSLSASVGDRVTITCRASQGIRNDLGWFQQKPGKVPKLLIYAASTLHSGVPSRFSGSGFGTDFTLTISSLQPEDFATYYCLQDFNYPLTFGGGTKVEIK as well.
Solution: 9.39

Exercise: Please do the same for H4H584P (antibody, human IgG4, V domains shown, also called H1H584P variable regions) VH: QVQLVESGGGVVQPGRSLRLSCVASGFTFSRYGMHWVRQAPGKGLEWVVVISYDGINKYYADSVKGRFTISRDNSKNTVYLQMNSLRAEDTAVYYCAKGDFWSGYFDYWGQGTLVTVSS VL: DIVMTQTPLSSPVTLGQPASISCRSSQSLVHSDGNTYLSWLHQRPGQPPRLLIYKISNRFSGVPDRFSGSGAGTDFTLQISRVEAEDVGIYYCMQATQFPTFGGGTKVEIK as well.
Solution: 9.28

Exercise: Please do the same for H4H579P (antibody, human IgG4, V domains shown, also called H1H579P variable regions) VH: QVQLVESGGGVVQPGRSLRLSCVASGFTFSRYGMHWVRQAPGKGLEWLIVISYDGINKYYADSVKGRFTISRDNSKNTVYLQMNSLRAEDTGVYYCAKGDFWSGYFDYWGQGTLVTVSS VL: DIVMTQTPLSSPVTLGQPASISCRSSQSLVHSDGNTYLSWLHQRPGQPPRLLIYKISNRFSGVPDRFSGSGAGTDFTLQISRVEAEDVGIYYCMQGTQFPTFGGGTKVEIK as well.
Solution: 8.79
